Data provenance: patent US4665083A

# System: pentatetrazole spasm
# assay overview: animal or person
# Type: in vivo
# assay setup: LD50 and ED50 pentatetrazole spasm, mice
# cutoff 30 applies to Therapeutical index (inhibition of pentatetrazole spasm); >= gives Satisfied, < gives Not satisfied

Some solved cases for reference:
> print(dat)
                                   molecule          group
1  Cl.Cl.N=C1SCCN1c1ccc(Cl)cc1N [Compound 1]      Satisfied
2  Br.COc1ccc(N2CCSC2=N)c([N+](=O)[O-])c1 [Compound 11]  Not satisfied

Request: Say whether Cl.N=C1SCCN1c1ccc(C(F)(F)F)cc1N [Compound 4] shows Therapeutical index (inhibition of pentatetrazole spasm) of 30 or more.
Result: Not satisfied

Request: Please answer likewise for CCS(=O)(=O)O.CCS(=O)(=O)O.N=C1SCCN1c1ccc(Cl)cc1N [Compound 8]
Result: Satisfied

====

# Test system: Tetrabenazine ptosis
# assay overview: animal or person
# Assay type: in vivo
# assay setup: LD50 and ED50 tetrabenazine ptosis, mice
Assignment: determine reported Therapeutical index (tetrabenazine ptosis antagonism) for the given molecules.

Here is how some molecules turned out for Therapeutical index (tetrabenazine ptosis antagonism).
> print(dat)
                                   molecule     target.under.test  endpoint.value
1  CCS(=O)(=O)O.CCS(=O)(=O)O.N=C1SCCN1c1ccc(Cl)cc1N  Tetrabenazine ptosis             667
2            COc1ccc(N2CCSC2=N)c(N)c1.Cl.Cl  Tetrabenazine ptosis              75
3              Cl.Cl.N=C1SCCN1c1ccc(Cl)cc1N  Tetrabenazine ptosis              39

# map each molecule to its Therapeutical index (tetrabenazine ptosis antagonism)
1. Cl.N=C1SCCN1c1ccc(C(F)(F)F)cc1N
2. CC1CSC(=N)N1c1ccc(Cl)cc1N.Cl.Cl (stereo not drawn)

Result:
[32.5, 67]

Below are some molecules; for each one, tell me its Therapeutical index (tetrabenazine ptosis antagonism).
1. CN(C)CCC=C1c2ccccc2CCc2ccccc21 [Amitriptylin, reference compound]
2. CC1CN(c2ccc(Cl)cc2N)C(=N)S1.CCS(=O)(=O)O (stereo not drawn)
3. Br.COc1ccc(N2CCSC2=N)c([N+](=O)[O-])c1
4. Cl.Cl.N=C1SCCN1c1cc(Cl)ccc1N

Result:
18.7
83
16.3
32

====

Consider the following compounds; for each one, report its Therapeutical index (inhibition of maximum electroshock).
# Test system: maximum electroshock
# assay overview: animal or person
# Format: in vivo
# assay setup: LD50 and ED50 electroshock, mice
Numbers only.

Worked cases, Therapeutical index (inhibition of maximum electroshock) given:
> print(dat)
                                   compound     target.under.test  endpoint.value
1              Cl.Cl.N=C1SCCN1c1ccc(Cl)cc1N  maximum electroshock              10
2  CC1CN(c2ccc(Cl)cc2N)C(=N)S1.CCS(=O)(=O)O (stereo not shown)  maximum electroshock              30
3  CC1CSC(=N)N1c1ccc(Cl)cc1N.Cl.Cl (stereo not shown)  maximum electroshock            14.2

Request: For the compound shown here, CCS(=O)(=O)O.CCS(=O)(=O)O.N=C1SCCN1c1ccc(Cl)cc1N , give the reported Therapeutical index (inhibition of maximum electroshock).
Result: 12.5

====

Provide the recorded Therapeutical index (analgesic effect, writhing test) for the entries that follow.
# Tested on: acetic acid writhing
# assay overview: animal or person
# Type: in vivo
# assay setup: LD50 and ED50 writhing test, mice
# Experimental: (9) Analgesic effect on mice (writhing test) The test is carried out on mice according to the modified method of Newbould. 0.75 percent acetic acid is administered to the animals in a volume of 20 ml/kg, intraperitoneally, and the characteristic "writhing reactions" are counted for a period of 5 minutes, starting from the fifth minute after challenge. […] The inhibition relative to the control group is evaluated in percentage.
Answers are plain numbers.

The examples below pair each entry with its known result.
> print(dat)
                                   compound     target.under.test  endpoint.value
1  CC1CN(c2ccc(Cl)cc2N)C(=N)S1.CCS(=O)(=O)O (centres unmarked) [Compound 12]  acetic acid writhing            17.7
2  CCS(=O)(=O)O.CCS(=O)(=O)O.N=C1SCCN1c1ccc(Cl)cc1N [Compound 8]  acetic acid writhing             5.9
3  N=C1SCCN1c1ccccc1[N+](=O)[O-] [Compound 10, 3-(2-nitrophenyl)-2-iminothiazolidine]  acetic acid writhing            17.5

Consider the following items and state reported Therapeutical index (analgesic effect, writhing test) for each.
1. Cc1ccc(N2CCSC2=N)c(N)c1 [Compound 13]
2. N=C1SCCN1c1ccc(C(F)(F)F)cc1N [Compound 4 (diethanesulfonate)]
3. N=C1SCCN1c1ccc(N)cc1[N+](=O)[O-] [Compound 15]
4. Cl.Cl.N=C1SCCN1c1cc(Cl)ccc1N [Compound 2]

Result:
1. 8.1
2. 8.1
3. 10.4
4. 18.6

Request: Item: N=C1SCCN1c1cc(Cl)ccc1[N+](=O)[O-] [Compound 9] Test system: acetic acid writhing Read-out: Therapeutical index (analgesic effect, writhing test) Value: ?
Result: 13

====

# assay overview: in vivo
# assay setup: mouse, mice, oral, 7 days observation, Litchfield-Wilcoxon
Output Yes for records whose LD50 at 168 h is lower than 700 mg/kg, No for records at or above 700 mg/kg.

// known answers, use as guide
> print(dat)
                                   molecule  group
1  CCS(=O)(=O)O.CCS(=O)(=O)O.N=C1SCCN1c1ccc(Cl)cc1N     No
2  CN1C(=O)OC(C)(C)C1=O [Trimethadion, reference compound]     No
3  CCCC(C)(COC(N)=O)COC(N)=O [Meprobamate, reference compound]     No

Request: hey, is LD50 at 168 h for COc1ccc(Cc2nccc3cc(OC)c(OC)cc23)cc1OC [Papaverine, reference compound] lower than 700 mg/kg or not?
Result: Yes

====

Task for the reader: assign each of the following molecules its reported ED50.
# System: yohimbine toxicity
# assay overview: animal or person
# Format: in vivo
# assay setup: Mus musculus, ip, read-out: Potentiation of yohimbine toxicity ED50
Answers are plain numbers, in mg/kg.

Here is how some molecules turned out for ED50.
> print(dat)
                                   molecule  measured.parameter  endpoint.value
1  CN(C)CCC=C1c2ccccc2CCc2ccccc21 [Amitriptylin, reference compound]                ED50            12.5
2                      N=C1SCCN1c1ccc(N)cc1                ED50              20
3  CCS(=O)(=O)O.CCS(=O)(=O)O.N=C1SCCN1c1ccc(Cl)cc1N                ED50              22
4              Cl.Cl.N=C1SCCN1c1cc(Cl)ccc1N                ED50              50
5  CC1CN(c2ccc(Cl)cc2N)C(=N)S1.CCS(=O)(=O)O (stereo not drawn)                ED50              45

Request: # get_value(readout='ED50', item= Cc1ccc(N2CCSC2=N)c(N)c1 )
Result: 52

====

# System: nicotine lethality
# assay overview: Inhibition of nicotine spasm / nicotine lethality
# Assay type: in vivo, mice
# assay setup: LD50 and ED50 nicotine lethality, mice
Would you mind telling me the reported Therapeutical index (inhibition of nicotine lethality) of each entry?
One number for each entry.

// input: 7 compounds below; output: Therapeutical index (inhibition of nicotine lethality) for each
1. CC1CSC(=N)N1c1ccc(Cl)cc1N.Cl.Cl (centres unmarked)
2. Cc1ccc(N2CCSC2=N)c(N)c1
3. Cl.N=C1SCCN1c1ccc(Cl)cc1[N+](=O)[O-]
4. CC1CN(c2ccc(Cl)cc2N)C(=N)S1.CCS(=O)(=O)O (centres unmarked)
5. Cl.Cl.N=C1SCCN1c1ccc(Cl)cc1N
6. N=C1SCCN1c1ccccc1[N+](=O)[O-]
7. Br.COc1ccc(N2CCSC2=N)c([N+](=O)[O-])c1

Result:
1: 31.3; 2: 130; 3: 122; 4: 100; 5: 5.6; 6: 24; 7: 14.4

Request: Reported Therapeutical index (inhibition of nicotine lethality), compound CCS(=O)(=O)O.CCS(=O)(=O)O.N=C1SCCN1c1ccc(Cl)cc1N : ____
Result: 83.3

====

# Test system: Tetrabenazine ptosis
# assay overview: animal or person
# Type: in vivo
# assay setup: Mus musculus, po, read-out: Tetrabenazine ptosis antagonism ED50
Define the label as 1.0 when ED50 is strictly less than 10 mg/kg and as 0.0 in all remaining cases.

Request: Here's an entry: CC1CSC(=N)N1c1ccc(Cl)cc1N.Cl.Cl (stereo not drawn) [Compound 3] . Is its ED50 below 10 mg/kg?
Result: 1.0

Request: Could you do the same for Br.COc1ccc(N2CCSC2=N)c([N+](=O)[O-])c1 [Compound 11] , please?
Result: 0.0

Request: One more compound: CC1CN(c2ccc(Cl)cc2N)C(=N)S1.CCS(=O)(=O)O (stereo not drawn) [Compound 12]
Result: 1.0

Request: How about COc1ccc(N2CCSC2=N)c(N)c1.Cl.Cl [Compound 7] ?
Result: 0.0

Request: Could you do the same for Cl.N=C1SCCN1c1ccc(C(F)(F)F)cc1N [Compound 4] , please?
Result: 0.0

Request: Similarly, Cl.Cl.N=C1SCCN1c1ccc(Cl)cc1N [Compound 1] ?
Result: 0.0

Request: Another compound to look at: Cl.Cl.N=C1SCCN1c1cc(Cl)ccc1N [Compound 2]
Result: 0.0

Request: Field entry: CCS(=O)(=O)O.CCS(=O)(=O)O.N=C1SCCN1c1ccc(Cl)cc1N [Compound 8]
Result: 1.0

Request: Also need CN(C)CCC=C1c2ccccc2CCc2ccccc21 [Amitriptylin, reference compound] , thanks.
Result: 0.0
